Parameter: EC50. Scope: all listed entries.
Target: (Homo sapiens)
Sequence (P43220 24-463): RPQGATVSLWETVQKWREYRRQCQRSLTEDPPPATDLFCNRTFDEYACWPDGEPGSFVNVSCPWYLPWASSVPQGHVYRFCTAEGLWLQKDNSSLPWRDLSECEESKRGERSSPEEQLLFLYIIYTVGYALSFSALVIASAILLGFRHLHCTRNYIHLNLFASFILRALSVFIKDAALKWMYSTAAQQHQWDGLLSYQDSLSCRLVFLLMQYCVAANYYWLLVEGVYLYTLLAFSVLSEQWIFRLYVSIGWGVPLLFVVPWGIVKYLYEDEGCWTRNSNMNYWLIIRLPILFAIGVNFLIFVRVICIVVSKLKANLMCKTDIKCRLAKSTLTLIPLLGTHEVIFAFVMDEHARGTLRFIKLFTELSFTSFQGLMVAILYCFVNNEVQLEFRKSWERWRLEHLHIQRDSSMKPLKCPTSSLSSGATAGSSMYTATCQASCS
Assay: h-GLP-1 activity assay (cAMP HTRF, HEK293 cells with stable expression of human GLP-1)
Conditions: relative EC50, 10 nM human GLP-1 set as 100% response, 30 min at 37° C.

Sample answers from the record:
[
  {
    "Molecule": "C[C@H]1c2c(nn(-c3ccc(F)c(C4CC4)c3)c2-n2ccn(-c3ccc4c(cnn4C)c3F)c2=O)CCN1C(=O)c1cc2nc([C@H]3CCOC(C)(C)C3)ccn2c1C1(c2noc(=O)[nH]2)CC1 (single isomer, unassigned) [Compound 101]",
    "EC50": "> 100 nM"
  },
  {
    "Molecule": "C[C@@H]1c2c(-n3ccn(-c4ccc5c(cnn5C)c4F)c3=O)c(-c3ccc(F)cc3)nn2CCN1C(=O)c1cc2cc([C@@H]3CCOC(C)(C)C3)ccc2n1C1(c2noc(=O)[nH]2)CC1 (single isomer, unassigned) [Compound 34]",
    "EC50": "> 100 nM"
  },
  {
    "Molecule": "C[C@H]1c2c(-n3ccn(-c4ccc5c(cnn5C)c4F)c3=O)c(-c3cc(Cl)c(F)c(Cl)c3)nn2CCN1C(=O)c1cc2cc([C@@H]3CCOC(C)(C)C3)ccc2n1C1(c2noc(=O)[nH]2)CC1 (single isomer, unassigned) [Compound 52]",
    "EC50": "> 100 nM"
  }
]

Next up:
Case C[C@H]1c2c(nn(-c3ccc(F)cc3)c2-n2ccn(-c3ccc4c(cnn4C)c3F)c2=O)CCN1C(=O)c1cn2cc([C@@H]3CCOC(C)(C)C3)ccc2c1C1(c2noc(=O)[nH]2)CC1 (single isomer, unassigned) [Compound 11] , (Homo sapiens), EC50 recorded as < 20 nM

----------
Parameter: EC50. Scope: all listed entries.
Target: UniProt:P43220
Assay: h-GLP-1 activity assay (cAMP HTRF, HEK293 cells with stable expression of human GLP-1)
Conditions: relative EC50, 10 nM human GLP-1 set as 100% response, 30 min at 37° C.
Experimental: Human GLP-1 agonizing activity was detected in HEK293 cells with stable expression of human GLP-1 by Cisbio cAMP Gs dynamic kit (Catalog #62AM4PEC) according to manufacturer's protocol. Briefly, cells were collected and resuspended in assay buffer containing 0.1% BSA and 0.5 mM of IBMX at concentration to 2.5×10^5 cells/mL. […] HTRF signals were read at 665 and 615 nm with EnVision plate reader and calculated cAMP concentration by interpolation to the standard curve. […]

Sample answers from the record:
[
  {
    "Molecule": "C[C@H]1c2c(nn(C3CCC(F)(F)CC3)c2-n2ccn(-c3ccc4c(cnn4C)c3F)c2=O)CCN1C(=O)c1cc2cc([C@@H]3CCOC(C)(C)C3)ccc2n1C1(c2noc(=O)[nH]2)CC1 (single isomer, unassigned)",
    "Target": "UniProt:P43220",
    "Outcome measure": "EC50",
    "Result": "< 20 nM"
  },
  {
    "Molecule": "C[C@H]1c2c(nn(-c3ccc(F)c(C4CC4)c3)c2-n2ccn(-c3ccc4c(cnn4C)c3F)c2=O)CCN1C(=O)c1cc2c(F)c([C@H]3CCOC(C)(C)C3)ccn2c1C1(c2noc(=O)[nH]2)CC1 (single isomer, unassigned)",
    "Target": "UniProt:P43220",
    "Outcome measure": "EC50",
    "Result": "> 100 nM"
  },
  {
    "Molecule": "Cc1cc(-n2nc3c(c2-n2ccn(-c4ccc5c(cnn5C)c4F)c2=O)[C@H](C)N(C(=O)c2cc4cc(C5CCOC(C)(C)C5)ccc4n2-c2ccccc2C(=O)O)CC3)cc(C)c1F (mixture of isomers)",
    "Target": "UniProt:P43220",
    "Outcome measure": "EC50",
    "Result": "< 20 nM"
  }
]

Looking up Cc1cc(-c2nn3c(c2-n2ccn(-c4ccc5c(cnn5C)c4F)c2=O)[C@@H](C)N(C(=O)c2cc4cc([C@@H]5CCOC(C)(C)C5)ccc4n2C2(c4noc(=O)[nH]4)CC2)CC3)ccc1F (single isomer, unassigned) , I see its EC50 listed as > 100 nM

Looking up C[C@H]1c2c(nn(-c3ccc(F)c(C4CC4)c3)c2-n2ccn(-c3ccc4c(cnn4C)c3F)c2=O)CCN1C(=O)c1cn2nc([C@@H]3CCOC(C)(C)C3)ccc2c1C1(c2noc(=O)[nH]2)CC1 (single isomer, unassigned) , I see its EC50 listed as < 20 nM

Looking up C[C@H]1c2c(nn(C3CCC(F)(F)CC3)c2-n2ccn(-c3ccc4c(cnn4C)c3F)c2=O)CCN1C(=O)c1cc2cc([C@H]3CCOC(C)(C)C3)ccc2n1C1(c2noc(=O)[nH]2)CC1 (single isomer, unassigned) , I see its EC50 listed as > 100 nM

Looking up Cc1cc(-n2nc3c(c2-n2ccn(-c4ccc5c(cnn5C)c4F)c2=O)[C@H](C)N(C(=O)c2cc4cc([C@H]5CCOC(C)(C)C5)ccn4c2C2(c4noc(=O)[nH]4)CC2)CC3)cc(C)c1F (single isomer, unassigned) , I see its EC50 listed as 20 to 100 nM

Looking up CC1c2c(-n3ccn(-c4ccc5c(cnn5C)c4F)c3=O)c(-c3ccc(F)cc3)nn2CCN1C(=O)c1cn2cc(C3CCOCC3)ccc2c1C1(c2noc(=O)[nH]2)CC1 (racemic) , I see its EC50 listed as 20 to 100 nM

Looking up COCC12CCC(n3ccn(-c4c(-c5ccc(F)cc5)nn5c4[C@H](C)N(C(=O)c4cc6cc(C7CCOCC7)ccc6n4Cc4noc(=O)[nH]4)CC5)c3=O)(CC1)CC2 (single isomer, unassigned) , I see its EC50 listed as > 100 nM

Looking up C[C@H]1c2c(-n3ccn(-c4ccc5c(cnn5C)c4F)c3=O)c(-c3ccc(F)c(C(F)(F)F)c3)nn2CCN1C(=O)c1cc2cc([C@@H]3CCOC(C)(C)C3)ccc2n1C1(c2noc(=O)[nH]2)CC1 (single isomer, unassigned) , I see its EC50 listed as < 20 nM

Looking up C[C@H]1c2c(nn(-c3ccc(F)c(C4CC4)c3)c2-n2ccn(-c3ccc4c(cnn4C)c3F)c2=O)CCN1C(=O)c1cc2c(F)c([C@@H]3CCOC(C)(C)C3)ccn2c1C1(c2noc(=O)[nH]2)CC1 (single isomer, unassigned) , I see its EC50 listed as < 20 nM

Looking up Cc1cc(-c2nn3c(c2-n2ccn(-c4ccc5c(cnn5C)c4F)c2=O)[C@@H](C)N(C(=O)c2cn4cc([C@@H]5CCOC(C)(C)C5)ccc4c2C2(c4noc(=O)[nH]4)CC2)CC3)cc(C)c1F (single isomer, unassigned) , I see its EC50 listed as < 20 nM

Looking up Cc1cc(-n2nc3c(c2-n2ccn(-c4ccc5c(cnn5C)c4F)c2=O)[C@H](C)N(C(=O)c2cn4cc([C@H]5CCOC(C)(C)C5)ccc4c2[C@]2(c4noc(=O)[nH]4)C[C@@H]2C)CC3)cc(C)c1F (single isomer, unassigned) , I see its EC50 listed as < 20 nM

Looking up Cc1cc(-c2nn3c(c2-n2ccn(-c4ccc5c(cnn5C)c4F)c2=O)[C@@H](C)N(C(=O)c2cc4cc([C@@H]5CCOC(C)(C)C5)ccc4n2C2(c4noc(=O)[nH]4)CC2)CC3)cc(C)c1F (single isomer, unassigned) , I see its EC50 listed as < 20 nM

Looking up Cc1cc(-n2nc3c(c2-n2ccn(-c4ccc5c(cnn5C)c4F)c2=O)[C@H](C)N(C(=O)c2cn4cc(-c5ccnc(C(F)(F)F)c5)ccc4c2C2(c4noc(=O)[nH]4)CC2)CC3)cc(C)c1F , I see its EC50 listed as < 20 nM

Looking up C[C@H]1c2c(-n3ccn(-c4ccc5c(cnn5C)c4F)c3=O)c(-c3ccc(F)cc3)nn2CCN1C(=O)c1cn2cc([C@@H]3CCOC(C)(C)C3)ccc2c1C1(c2noc(=O)[nH]2)CC1 (single isomer, unassigned) , I see its EC50 listed as < 20 nM

----------
Parameter: pEC50. Scope: all listed entries.
Biological target: (Homo sapiens)
Assay: h-GLP-1 activity assay (cAMP HTRF, HEK293 cells with stable expression of human GLP-1)
Conditions: relative EC50, 10 nM human GLP-1 set as 100% response, 30 min at 37° C.
pEC50: −log10 of the molar value.

[
  {
    "Compound": "Cc1cc(-n2nc3c(c2-n2ccn(-c4ccc5c(cnn5C)c4F)c2=O)[C@H](C)N(C(=O)c2cc4cc([C@@H]5CCOC(C)(C)C5)ccn4c2C2(c4noc(=O)[nH]4)CC2)CC3)ccc1F (single isomer, unassigned)",
    "Target": "(Homo sapiens)",
    "pEC50": "> 7.70"
  }
]

Looking up Cc1cc(-c2nn3c(c2-n2ccn(-c4ccc5c(cnn5C)c4F)c2=O)[C@H](C)N(C(=O)c2cc4cc([C@@H]5CCOC(C)(C)C5)ccc4n2C2(c4noc(=O)[nH]4)CC2)CC3)cc(C)c1F (single isomer, unassigned) , I see its pEC50 listed as < 7.00
